Could you please report measured IC50 for the items listed next?
tested on: MDA-MB-436 cells; experiment: Resazurin viability assay, MDA-MB-436 cells (monotherapy and combination); format: cell-based, human; details: Homo sapiens; MDA-MB-436, 72 h treatment, n = 3
The figure you give is taken to be in µM; do not add the unit.

[ask] Consider the compound Nc1cc(C(F)(F)F)c(-c2cc(N3CCOCC3)nc(N3CCOCC3)n2)cn1 [BKM120, buparlisib, reference compound] and give its measured IC50.
[reply] 1.2

[ask] Consider the compound CCCCCCCOc1ccc(OCC(=O)c2nc(C(=O)OC)cs2)cc1 and give its measured IC50.
[reply] 10.4
